# Assay Target: Human recombinant PTEN (Homo sapiens, UniProt P60484)
# Construct: host or cells: Escherichia coli
# Sequence (P60484 whole entry): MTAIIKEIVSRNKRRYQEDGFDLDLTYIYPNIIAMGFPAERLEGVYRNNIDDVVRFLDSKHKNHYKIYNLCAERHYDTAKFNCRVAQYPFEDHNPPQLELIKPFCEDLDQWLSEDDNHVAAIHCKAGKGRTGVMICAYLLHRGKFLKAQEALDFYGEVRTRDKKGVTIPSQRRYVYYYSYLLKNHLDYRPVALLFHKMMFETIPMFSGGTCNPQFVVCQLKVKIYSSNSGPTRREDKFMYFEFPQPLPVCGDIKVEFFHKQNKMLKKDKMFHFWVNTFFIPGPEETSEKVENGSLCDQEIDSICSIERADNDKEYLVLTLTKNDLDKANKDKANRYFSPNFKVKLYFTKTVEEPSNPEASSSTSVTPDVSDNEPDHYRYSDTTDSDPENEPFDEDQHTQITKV
# Assay Method Text: PTEN inhibitor screen: conversion of DiFMUP to DiFMU by recombinant PTEN, spectrofluorometric
# Type: biochemical
# Applied Conditions: candidate PTEN inhibitor at 10 μM; 100 μM DiFMUP, 37° C., 1 hour, pH 8.5; read-out: % Inhibition
Bridge positions count the residues as written; N and C are the ends. Square brackets hold non-standard residues; d marks the D form. Peptide text beside a SMILES is read from it. Orn = NCCC[C@H](N)C(=O)O; Mpa = O=C(O)CCS
Just so you know, the groups by inhibition at 10 µM go like this: 0 = under 10%, 1 = from 10% up to 40%, 2 = 40% and over

* O=C(OC[C@H]1O[C@@H](OC(=O)c2cc(O)c(O)c(OC(=O)c3cc(O)c(O)c(O)c3)c2)[C@H](OC(=O)c2cc(O)c(O)c(OC(=O)c3cc(O)c(O)c(O)c3)c2)[C@@H](OC(=O)c2cc(O)c(O)c(OC(=O)c3cc(O)c(O)c(O)c3)c2)[C@@H]1OC(=O)c1cc(O)c(O)c(OC(=O)c2cc(O)c(O)c(O)c2)c1)c1cc(O)c(O)c(OC(=O)c2cc(O)c(O)c(O)c2)c1 [tannic acid] | 2
* CCCCCCCC/C=C\CCCCCCCC(=O)O[C@H](COC(=O)CCCCCCCCCCCCCCC)COP(=O)(O)OCC(O)CO (mixture of isomers) | 2
* C#C[C@]1(O)CC[C@H]2[C@@H]3CCC4=CC(=O)CC[C@@H]4[C@H]3C(=C)C[C@@]21CC [etonogestrel] | 0
* CCc1c(Cl)c(O)c(Cl)c(O)c1C(=O)O[C@H]1[C@H](O)[C@H](OC)[C@H](OC/C2=C\C=C\C[C@H](O)/C(C)=C/[C@H](CC)[C@@H](O[C@@H]3OC(C)(C)[C@@H](OC(=O)C(C)C)[C@H](O)[C@@H]3O)/C(C)=C/C(C)=C/C[C@@H]([C@@H](C)O)OC2=O)O[C@@H]1C [fidaxomicin] | 1
* CC(C)(C)CC(C)(C)c1cc(Cc2cc(C(C)(C)CC(C)(C)C)cc(-n3nc4ccccc4n3)c2O)c(O)c(-n2nc3ccccc3n2)c1 [bisoctrizole] | 0
* O=C(O)CN(CC(=O)O)Cc1cc2c(cc1O)Oc1cc(O)c(CN(CC(=O)O)CC(=O)O)cc1C21OC(=O)c2ccccc21 [Oftasceine] | 1
* CC(C)c1c(C(=O)Nc2ccccc2)c(-c2ccccc2)c(-c2ccc(F)cc2)n1CC[C@@H](O)C[C@@H](O)CC(=O)O [atorvastatin] | 0
* Cc1ccccc1-c1cc(N2CCN(C)CC2)ncc1N(C)C(=O)C(C)(C)c1cc(C(F)(F)F)cc(C(F)(F)F)c1 [netupitant] | 1
* CC(C)c1nc(CN(C)C(=O)N[C@@H](CCN2CCOCC2)C(=O)N[C@H](CC[C@H](Cc2ccccc2)NC(=O)OCc2cncs2)Cc2ccccc2)cs1 [Cobicistat] | 1
* CCC1=C[C@@H]2CN(C1)Cc1c([nH]c3ccccc13)[C@@](C(=O)OC)(c1cc3c(cc1OC)N(C)[C@H]1[C@@](O)(C(=O)OC)[C@H](OC(C)=O)[C@]4(CC)C=CCN5CC[C@]31[C@@H]54)C2 [vinorelbine] | 1
* CC1(C)C(/C=C/C=C/C=C/C=C2\N(CCCCS(=O)(=O)O)c3ccc4ccccc4c3C2(C)C)=[N+](CCCCS(=O)(=O)[O-])c2ccc3ccccc3c21 [indocyanine green acid form] | 2
* Cc1cc(-c2ccc(/N=N/c3c(S(=O)(=O)O)cc4cc(S(=O)(=O)O)cc(N)c4c3O)c(C)c2)ccc1/N=N/c1c(S(=O)(=O)O)cc2cc(S(=O)(=O)O)cc(N)c2c1O [trypan blue free acid] | 2
* COc1ccc(CC2c3cc(OC)c(OC)cc3CC[N+]2(C)CCC(=O)OCCCCCOC(=O)CC[N+]2(C)CCc3cc(OC)c(OC)cc3C2Cc2ccc(OC)c(OC)c2)cc1OC (centres unmarked) [atracurium besylate] | 1
* Clc1ccc(C(c2ccccc2Cl)C(Cl)Cl)cc1 (centres unmarked) [mitotane] | 1
* CCOc1ccc(C[C@H]2NC(=O)CCSSC[C@@H](C(=O)N3CCC[C@H]3C(=O)N[C@@H](CCCN)C(=O)NCC(N)=O)NC(=O)[C@H](CC(N)=O)NC(=O)[C@H]([C@@H](C)O)NC(=O)[C@H]([C@@H](C)CC)NC2=O)cc1 [atosiban] ([Mpa][dY](Et)ITNCP[Orn]G-NH2; disulfide 1-6) | 1
* C[C@@H]1CC(=O)NN=C1c1ccc(NN=C(C#N)C#N)cc1 [Levosimendan] | 1
* CO[C@H]1O[C@H](COS(=O)(=O)O)[C@@H](O[C@@H]2O[C@@H](C(=O)O)[C@@H](O[C@H]3O[C@H](COS(=O)(=O)O)[C@@H](O[C@@H]4O[C@H](C(=O)O)[C@@H](O[C@H]5O[C@H](COS(=O)(=O)O)[C@@H](O)[C@H](O)[C@H]5NS(=O)(=O)O)[C@H](O)[C@H]4O)[C@H](OS(=O)(=O)O)[C@H]3NS(=O)(=O)O)[C@H](O)[C@H]2OS(=O)(=O)O)[C@H](O)[C@H]1NS(=O)(=O)O [Fondaparinux] | 2

Hello, the source for this data is patent US12036230B2, in case you need it.
